As shown below, each of these binders has a reported ratio of amounts bound (vs GLS3000) value.
Target: CD3ε homodimer protein (human, UniProt P07766 23-126, limits assumed)
Sequence (P07766 23-126 limits assumed): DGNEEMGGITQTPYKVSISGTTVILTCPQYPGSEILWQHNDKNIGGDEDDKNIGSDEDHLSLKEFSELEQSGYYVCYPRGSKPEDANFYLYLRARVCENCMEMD
Assay: SPR, immobilized CD3ε homodimer;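 note: biacore T200 surface plasmon resonance at 25 °C, antibody variants flowed as analytes over amine-coupled CD3ε homodimer on a CM4 chip, variant binding amount divided by that of GLS3000 antibody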

The examples below pair each entry with its known result.
1. GLS3000 Q90A (antibody, name in Kabat numbering, V domains shown, one-arm format as m2) VH: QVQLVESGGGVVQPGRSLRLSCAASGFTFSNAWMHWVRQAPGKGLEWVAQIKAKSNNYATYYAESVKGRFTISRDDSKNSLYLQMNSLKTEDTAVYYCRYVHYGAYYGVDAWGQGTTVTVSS VL: DIVMTQSPLSLPVTPGEPASISCRSSQSLVHSNRNTYLHWYQQKPGQAPRLLIYKVSNRFSGVPDRFSGSGSGTDFTLKISRVEAEDVGVYYCGAGTQVPYTFGQGTKLEIK; 0.5
2. GLS3000 V94D (antibody, name in Kabat numbering, V domains shown, one-arm format as m2) VH: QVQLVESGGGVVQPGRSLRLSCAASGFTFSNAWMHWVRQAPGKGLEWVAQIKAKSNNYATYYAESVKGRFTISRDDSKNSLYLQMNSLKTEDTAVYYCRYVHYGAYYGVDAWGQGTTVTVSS VL: DIVMTQSPLSLPVTPGEPASISCRSSQSLVHSNRNTYLHWYQQKPGQAPRLLIYKVSNRFSGVPDRFSGSGSGTDFTLKISRVEAEDVGVYYCGQGTQDPYTFGQGTKLEIK; 0.89
3. GLS3000 S56T (antibody, name in Kabat numbering, V domains shown, one-arm format as m2) VH: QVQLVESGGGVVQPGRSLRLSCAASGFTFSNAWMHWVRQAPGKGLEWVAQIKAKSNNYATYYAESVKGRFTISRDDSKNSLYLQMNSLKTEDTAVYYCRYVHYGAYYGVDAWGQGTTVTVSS VL: DIVMTQSPLSLPVTPGEPASISCRSSQSLVHSNRNTYLHWYQQKPGQAPRLLIYKVSNRFTGVPDRFSGSGSGTDFTLKISRVEAEDVGVYYCGQGTQVPYTFGQGTKLEIK; 0.97
4. GLS3000 K50R (antibody, name in Kabat numbering, V domains shown, one-arm format as m2) VH: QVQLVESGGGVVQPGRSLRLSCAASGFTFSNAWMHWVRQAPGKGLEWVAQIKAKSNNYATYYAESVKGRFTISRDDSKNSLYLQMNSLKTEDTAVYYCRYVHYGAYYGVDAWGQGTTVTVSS VL: DIVMTQSPLSLPVTPGEPASISCRSSQSLVHSNRNTYLHWYQQKPGQAPRLLIYRVSNRFSGVPDRFSGSGSGTDFTLKISRVEAEDVGVYYCGQGTQVPYTFGQGTKLEIK; 0.5

Lab note: next binder to report on.
**Q:** // ratio of amounts bound (vs GLS3000) lookup, key: GLS3000 K50Q (antibody, name in Kabat numbering, V domains shown, one-arm format as m2) VH: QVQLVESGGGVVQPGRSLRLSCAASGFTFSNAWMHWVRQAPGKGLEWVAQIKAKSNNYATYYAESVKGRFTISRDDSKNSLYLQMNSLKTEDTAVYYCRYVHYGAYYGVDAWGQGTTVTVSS VL: DIVMTQSPLSLPVTPGEPASISCRSSQSLVHSNRNTYLHWYQQKPGQAPRLLIYQVSNRFSGVPDRFSGSGSGTDFTLKISRVEAEDVGVYYCGQGTQVPYTFGQGTKLEIK
**A:** 0.18
